target: GST; assay: SPOT array; details: median of control spots 978
ASSAY READOUT: SPOT intensity

Worked cases, SPOT intensity given:
BINDER | SPOT intensity
KDKSRPPRPPPKPLH | 0
PSPSSSPPPIPKTAN | 1
KIRRSSLMIPNPQQF | 3
KKAPPPVVKPKPRNF | 3
DLPLPDLPPEPPTEL | 1

a: AIPPPVPNRPGGTTN
b: SSTPTTPERPKRKSG
q: Between a and b , which one shows the larger SPOT intensity value? Lab log: write the label of the selected item as the result.
a: b
